Numbers sourced from the RNAGym collection of RNA variant scans (doi:10.7554/elife.80360).

Entries and their self-cleavage
B1: CPEB3 Ribozyme (parent)
chain: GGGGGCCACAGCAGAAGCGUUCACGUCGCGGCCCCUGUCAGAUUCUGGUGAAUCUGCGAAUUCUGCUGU

Variants of: B1
Assay: self-cleavage, relative activity (ratio to wild type); higher = more cleavage; co-transcriptional
Answer as a number with no unit attached.

Take a look at these entries with their results.
GGGGGCCACAGCAGAAGCGUUCACGUCGCGGCCGCUGUCAGAUUCUGGUGAAUCUGCGAAUUCUGUUGU ... 0.643
GGGGGCCACAGCAGAAGCGUUCACGUCGCGGCCCCUGUCAGAAUCUGGUGAAUCUGCGACUUCUGCUGU ... 0.281
GGGGGCCACAGCAGAAGCGUUCACGUCGCGGCCCCUGACAGAUUCUGGUGAAUCUGCGAAUUCUGCUGC ... 1.03
GGGGGCCACAGCAGAAGCGUUCACGUCGCGGCCCCUGUCAGAUUCUGGUGAAUCUCCAAAUUCUGCUGU ... 0.76
GGGGGCCACAGCAGAAGCGUUCACGUCGCGGCCCCUGUCAGAUUCUCGUGAAUCUGGGAAUUCUGCUGU ... 0.299
GGGGGCCACAGCAGAGGCGUUCACGUCGCGGCCCCUGUCAGGUUCUGGUGAAUCUGCGAAUUCUGCUGU ... 0.855
GGGGGCCACAGCAGAAGCGUUCACGUCGCAGCCGCUGUCAGAUUCUGGUGAAUCUGCGAAUUCUGCUGU ... 0.278
GGGGGCCAAAGCAGAAGCGUUCACGUCGCGGCCCCUGUCAGAUUCUGGUGAAUCUGCCAAUUCUGCUGU ... 1.04
GGGGGCCACAGCAGAAGCGUUCAUGUCGCGGCCCCUGUCAGAUUCUGGUGAUUCUGCGAAUUCUGCUGU ... 0.81
GGGGGCCACAGCAGAAGCGUUCACGUCGCGGCCCCUGUCAGAUUUUGGUGAAUCUGCGAAUCCUGCUGU ... 0.895

Measured self-cleavage of GGGGGCCACAGUAGAAGCGUUCACGUCGCGGCCCCUGUCAGAUUCUGCUGAAUCUGCGAAUUCUGCUGU : 0.972

Record summary for GGGGGCCACAGCCGAAGCGUUCACGUCGCGGCCCCUGUCAGAUUCUGGUGAAUCUGGGAAUUCUGCUGU : reported self-cleavage = 0.235

For this variant ( GGGGGUCACAGCAGAAGCGUUCACGUCGCGGCCCCUGUCAGAUUCUGGUGAAUCUGCGAAUUAUGCUGU ), measured self-cleavage is 0.806

Entry under test: GGGGGCCACAGCAGAAGCGUUUACGUCGCGGCCCCUGUCAGAUUCUGGUGAAUCUGCGAAUUCCGCUGU . Its self-cleavage was 0.279

Sample GGGGGCCACAGCAGAAACGUUCACGUUGCGGCCCCUGUCAGAUUCUGGUGAAUCUGCGAAUUCUGCUGU ; self-cleavage observed: 0.172

Looking up GGGGGCCACAGCAGAAGCGUUCAGGUCGCGGCCCCUGUCAGAUUCUGGUGAAUCUGCGAAUUCUGCUCU , I see its self-cleavage listed as 0.578

The variant identified as GGGGGCCACAGCAGAAGCGUUCACGUCGCGGCCCCUGUCAGAUUCUCGUGAAUCUGCGAAUCCUGCUGU registered its self-cleavage at 0.91

// field: self-cleavage; key: GGGGGCCACAGCAUAAGCGUUCACGUCGCGGCCCCGGUCAGAUUCUGGUGAAUCUGCGAAUUCUGCUGU ; value = 0.142

Kindly note the recorded self-cleavage for GGGGGCCACAGCCGAAGCGUUCACGUCGCGGCCCCUGUCAGAUUCUGGUGAAUCUGCGAAUUCUGCAGU , which is 0.783

Form: variant = GGGGGCUACAGCAGAAGCGUUCACGUCGCGGCCCCUGUCAGAUUCUGGUGAAUCUGCGAAUUCUGAUGU ; self-cleavage = 0.8

Lab note: measured self-cleavage of GGGGGCCAAAGCAGAAGCGUUCACGUCGCGGCCCCUGUCAGAUUCUGGUGAAUCUGCGUAUUCUGCUGU was 0.897

self-cleavage reading for GUGGGCCACAGCAGAAGCGUUCACGUCGCGGCCUCUGUCAGAUUCUGGUGAAUCUGCGAAUUCUGCUGU : 0.103

// sample GGGGGCCACAGCAGAAGCGUUCACGUCGCGGCCCCUGUCAGAUUCUGGUGAAUCUGCGAAUUCUGCCGU , its self-cleavage was 0.997

Consider GGGGGCCACAGCAGAAGCGUUCACGUCGCGGCCCCUGUCAGAUUCUGGUGAAACUCCGAAUUCUGCUGU . Its measured self-cleavage is 0.411

Record GGGGGCCGCAGCAGAAGCGUUCACGUCGCGGCCCCUGUCAGAUUCUGGUGAAUCUGCGAAUUCUGCAGU . Reported self-cleavage: 0.59

Consider GGGGGCCACACCAGAAGCGUUCACGUCGCGGCCCCUGUCAGAUUCUGGUGAAUCUGCUAAUUCUGCUGU . Its measured self-cleavage is 0.896

// GGGGGCCACAGCAGAAUCGUUCACGUCGCGGCCCCUGUCAGAUUCUGGUGAAUCUGCGAAUUCUGCUGG : self-cleavage value = 0.768

Quick note, self-cleavage for GGGGGCCACUGCAGAAGAGUUCACGUCGCGGCCCCUGUCAGAUUCUGGUGAAUCUGCGAAUUCUGCUGU landed at 0.222

For reference, reported self-cleavage for GGGGCCCACAACAGAAGCGUUCACGUCGCGGCCCCUGUCAGAUUCUGGUGAAUCUGCGAAUUCUGCUGU stands at 0.164
